Would you mind telling me the reported Phage binding ELISA signal, Anti-PSMA Fab of each entry?
biological target: T1, PSMA Fab (biotinylated (site not stated)); assay: phage ELISA; biotinylated PSMA Fab on neutravidin plate, clonal phage supernatant, anti-M13-HRP detection;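 note: wells were preincubated with blocking buffer containing PSMA antigen or with blocking buffer only, then phage supernatant was added without washing for a brief incubation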
T1 construct: Biotinylated PSMA Fab captured on neutravidin plates in the phage ELISA; also called Anti-PSMA Fab; 006 PSMA Fab
Where no end group is shown, it is not given here.

Worked examples follow.
LQTWCIPPWMCEGG [Phage-2556] ... 1.12
SEHWCIPQWMCQSV (cysteine pairing not given here; also: fused to phage pIII, linker and fusion site not given here) [Phage-2543] ... 1.15
PLKWCIPQWMCTEA [Phage-2544] ... 1.15
EPKWCTPPWMCQSV [Phage-2551] ... 1.14
GEKACIPAWMCSEN [Phage-2553] ... 1.13

For every item below, please supply its Phage binding ELISA signal, Anti-PSMA Fab.
1. AEYWCIPRWMCSQH [Phage-2552]
2. LYNWCTPAWMCYGY [Phage-2545]

Found:
1: 1.14; 2: 1.15

Kindly note the recorded Phage binding ELISA signal, Anti-PSMA Fab for MFKWCTPQWMCETM [Phage-2554] , which is 1.13
